Measured mCrhr1 Luciferase Reporter Assay IC50 of individual entries
Biological target: T1, corticotropin-releasing hormone (CRH) peptide (human and mouse (same sequence), not fully specified)
T1 peptide: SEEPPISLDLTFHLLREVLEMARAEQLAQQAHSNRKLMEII
Test: cell-based or functional assay
Express it in nM; write the number only.

[
  {
    "BINDER": "PR302341-29 (antibody, human IgG1, kappa, V domains shown) VH: QVQLVQSGAEVKKPGASVKVSCKASGYTFTDYFMKWVRQAPGQGLEWMGVINPNNADIFYNQKFKGRVTMTVDKSISTAYMELSRLRSDDTAVYYCARGTDRALFAYWGQGTLVTVSS VL: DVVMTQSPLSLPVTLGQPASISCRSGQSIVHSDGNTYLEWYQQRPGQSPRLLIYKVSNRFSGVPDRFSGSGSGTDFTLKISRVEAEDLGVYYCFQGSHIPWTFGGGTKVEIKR",
    "QUANTITATIVE_READOUT": 1.39
  }
]

# evaluate next
What value of mCrhr1 Luciferase Reporter Assay IC50 has been reported for the following binder? PR302341-60 (antibody, human IgG1, kappa, V domains shown) VH: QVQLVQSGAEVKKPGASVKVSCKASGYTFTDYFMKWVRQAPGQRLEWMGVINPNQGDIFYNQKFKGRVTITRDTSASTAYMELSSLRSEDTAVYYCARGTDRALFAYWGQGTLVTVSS VL: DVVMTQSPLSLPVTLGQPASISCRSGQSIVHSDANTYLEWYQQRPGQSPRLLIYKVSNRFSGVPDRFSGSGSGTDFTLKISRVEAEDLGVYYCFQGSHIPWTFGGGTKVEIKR
4.7
